Data origin: ChEMBL document CHEMBL1687766

MIC90 values for the compounds below.
Tested on: Staphylococcus haemolyticus
Experiment: Antimicrobial activity against vancomycin-intermediate Staphylococcus haemolyticus after 24 hrs by microdilution method
Assay type: functional
Settings: Staphylococcus haemolyticus, 24 h
// units = µg/mL; emit number, no label

Compound: CN[C@H](CC(C)C)C(=O)N[C@H]1C(=O)N[C@@H](CC(N)=O)C(=O)N[C@H]2C(=O)N[C@H]3C(=O)N[C@H](C(=O)N[C@H](C(=O)NCCCO/N=C(\C(=O)N[C@@H]4C(=O)N5C(C(=O)[O-])=C(C[n+]6ccccc6)CS[C@H]45)c4nc(N)sc4Cl)c4cc(O)cc(O)c4-c4cc3ccc4O)[C@H](O)c3ccc(c(Cl)c3)Oc3cc2cc(c3O[C@@H]2O[C@H](CO)[C@@H](O)[C@H](O)[C@H]2O[C@H]2C[C@](C)(N)[C@H](O)[C@H](C)O2)Oc2ccc(cc2Cl)[C@H]1O
Target Or Test System: Staphylococcus haemolyticus
Property Label: MIC90
Result Value: 0.125
//
Compound: CN[C@H](CC(C)C)C(=O)N[C@H]1C(=O)N[C@@H](CC(N)=O)C(=O)N[C@H]2C(=O)N[C@H]3C(=O)N[C@H](C(=O)N[C@H](C(=O)O)c4cc(O)cc(O)c4-c4cc3ccc4O)[C@H](O)c3ccc(c(Cl)c3)Oc3cc2cc(c3O[C@@H]2O[C@H](CO)[C@@H](O)[C@H](O)[C@H]2O[C@H]2C[C@](C)(N)[C@H](O)[C@H](C)O2)Oc2ccc(cc2Cl)[C@H]1O [VANCOMYCIN]
Target Or Test System: Staphylococcus haemolyticus
Property Label: MIC90
Result Value: 8

Pending compound:
Specify MIC90 for CC(=O)NC[C@H]1CN(c2ccc(N3CCOCC3)c(F)c2)C(=O)O1 [LINEZOLID] and stop. 2

###

System: Staphylococcus aureus
Test: Antimicrobial activity against vancomycin-intermediate Staphylococcus aureus isolate MU50 assessed as bacterial count at 16 times MIC after 24 hrs by colony counting method
Type: functional
log10CFU/ml values for the compounds below.
The reply should be a number, written without any unit.

Some solved cases for reference:
Chem Smiles: CN[C@H](CC(C)C)C(=O)N[C@H]1C(=O)N[C@@H](CC(N)=O)C(=O)N[C@H]2C(=O)N[C@H]3C(=O)N[C@H](C(=O)N[C@H](C(=O)NCCCO/N=C(\C(=O)N[C@@H]4C(=O)N5C(C(=O)[O-])=C(C[n+]6ccccc6)CS[C@H]45)c4nc(N)sc4Cl)c4cc(O)cc(O)c4-c4cc3ccc4O)[C@H](O)c3ccc(c(Cl)c3)Oc3cc2cc(c3O[C@@H]2O[C@H](CO)[C@@H](O)[C@H](O)[C@H]2O[C@H]2C[C@](C)(N)[C@H](O)[C@H](C)O2)Oc2ccc(cc2Cl)[C@H]1O
Property Label: log10CFU/ml
Result Value: 4.94

Chem Smiles: CCCCCCCCCC(=O)N[C@@H](Cc1c[nH]c2ccccc12)C(=O)N[C@H](CC(N)=O)C(=O)N[C@@H](CC(=O)O)C(=O)N[C@@H]1C(=O)NCC(=O)N[C@@H](CCCN)C(=O)N[C@@H](CC(=O)O)C(=O)N[C@H](C)C(=O)N[C@@H](CC(=O)O)C(=O)NCC(=O)N[C@H](CO)C(=O)N[C@@H]([C@H](C)CC(=O)O)C(=O)N[C@@H](CC(=O)c2ccccc2N)C(=O)O[C@@H]1C
Property Label: log10CFU/ml
Result Value: 5.12

Chem Smiles: CN[C@H](CC(C)C)C(=O)N[C@H]1C(=O)N[C@@H](CC(N)=O)C(=O)N[C@H]2C(=O)N[C@H]3C(=O)N[C@H](C(=O)N[C@H](C(=O)O)c4cc(O)cc(O)c4-c4cc3ccc4O)[C@H](O)c3ccc(c(Cl)c3)Oc3cc2cc(c3O[C@@H]2O[C@H](CO)[C@@H](O)[C@H](O)[C@H]2O[C@H]2C[C@](C)(N)[C@H](O)[C@H](C)O2)Oc2ccc(cc2Cl)[C@H]1O
Property Label: log10CFU/ml
Result Value: 4.48

Specify log10CFU/ml for `CC(=O)NC[C@H]1CN(c2ccc(N3CCOCC3)c(F)c2)C(=O)O1` and stop. 4.25
